Data origin: patent US20260139055A1

Target: canine FcRn complex (FcRn-alpha subunit and beta-microglobulin), His-tagged, biotin labeled (canine)
Test: SPR (Biacore), biotin-FcRn captured on SA surface, IgG flowed over, pH 6, 15 C
Below is a list of entries, each paired with its recorded Kd value.
Reply numerically in nM, unit not repeated.

Solved entries:
- Binder: "canine IgGB (65) mAb with mutation Y436S (antibody, part only; not given: variable domains of unnamed mAb, not shown: another chain or arm of the molecule) constant: ASTTAPSVFPLAPSCGSTSGSTVALACLVSGYFPEPVTVSWNSGSLTSGVHTFPSVLQSSGLYSLSSMVTVPSSRWPSETFTCNVAHPASKTKVDKPVPKRENGRVPRPPDCPKCPAPEMLGGPSVFIFPPKPKDTLLIARTPEVTCVVVDLDPEDPEVQISWFVDGKQMQTAKTQPREEQFNGTYRVVSVLPIGHQDWLKGKQFTCKVNNKALPSPIERTISKARGQAHQPSVYVLPPSREELSKNTVSLTCLIKDFFPPDIDVEWQSNGQQEPESKYRTTPPQLDEDGSYFLYSKLSVDKSRWQRGDTFICAVMHEALHNHSTQESLSHSPGK"
  Kd (nM): 5.97
- Binder: "canine IgGB (65) mAb with mutation D312N (antibody, part only; not given: Variable domains, not shown: another chain or arm of the molecule) constant: ASTTAPSVFPLAPSCGSTSGSTVALACLVSGYFPEPVTVSWNSGSLTSGVHTFPSVLQSSGLYSLSSMVTVPSSRWPSETFTCNVAHPASKTKVDKPVPKRENGRVPRPPDCPKCPAPEMLGGPSVFIFPPKPKDTLLIARTPEVTCVVVDLDPEDPEVQISWFVDGKQMQTAKTQPREEQFNGTYRVVSVLPIGHQNWLKGKQFTCKVNNKALPSPIERTISKARGQAHQPSVYVLPPSREELSKNTVSLTCLIKDFFPPDIDVEWQSNGQQEPESKYRTTPPQLDEDGSYFLYSKLSVDKSRWQRGDTFICAVMHEALHNHYTQESLSHSPGK"
  Kd (nM): 17.1

Query block: What value of Kd has been reported for the following binder? canine IgGB (65) mAb with mutation A426S (antibody, part only; not given: Variable domains, not shown: another chain or arm of the molecule) constant: ASTTAPSVFPLAPSCGSTSGSTVALACLVSGYFPEPVTVSWNSGSLTSGVHTFPSVLQSSGLYSLSSMVTVPSSRWPSETFTCNVAHPASKTKVDKPVPKRENGRVPRPPDCPKCPAPEMLGGPSVFIFPPKPKDTLLIARTPEVTCVVVDLDPEDPEVQISWFVDGKQMQTAKTQPREEQFNGTYRVVSVLPIGHQDWLKGKQFTCKVNNKALPSPIERTISKARGQAHQPSVYVLPPSREELSKNTVSLTCLIKDFFPPDIDVEWQSNGQQEPESKYRTTPPQLDEDGSYFLYSKLSVDKSRWQRGDTFICSVMHEALHNHYTQESLSHSPGK
Result block: 11.9

Query block: What value of Kd has been reported for the following binder? canine IgGB (65) mAb with mutation T286E (antibody, part only; not given: Variable domains, not shown: another chain or arm of the molecule) constant: ASTTAPSVFPLAPSCGSTSGSTVALACLVSGYFPEPVTVSWNSGSLTSGVHTFPSVLQSSGLYSLSSMVTVPSSRWPSETFTCNVAHPASKTKVDKPVPKRENGRVPRPPDCPKCPAPEMLGGPSVFIFPPKPKDTLLIARTPEVTCVVVDLDPEDPEVQISWFVDGKQMQEAKTQPREEQFNGTYRVVSVLPIGHQDWLKGKQFTCKVNNKALPSPIERTISKARGQAHQPSVYVLPPSREELSKNTVSLTCLIKDFFPPDIDVEWQSNGQQEPESKYRTTPPQLDEDGSYFLYSKLSVDKSRWQRGDTFICAVMHEALHNHYTQESLSHSPGK
Result block: 8.66
